Reference for the values: PubChem BioAssay AID1963969

System: 817829-284-R-J1-PDC multi-cell spheroid viability
Experiment: Anticancer human tumor 817829-284-R-J1-PDC patient-derived colon adenocarcinoma cell line growth inhibition [PI3K]
Conditions: second compound 0.0316 µM; first compound 0.316 µM; stronger effect = lower value
Text: Combinatorial screen of targeted agents with the PI3K inhibitors inavolisib, alpelisib, duvelisib, and copanlisib in multi-cell type tumor spheroids A high-throughput screen of multi-cell type tumor spheroids was designed to identify active combinations of targeted small molecules and PI3K pathway inhibitors. […] Compounds. […] If the clinical Cmax for an agent had not been determined, the highest concentration tested was 10 microM. […]
// NB: equality with 90% counts as label 0; only viability, T/C strictly below is label 1

Previously resolved entries follow.
CNC(=O)c1ccc(N2C(=S)N(c3ccc(C#N)c(C(F)(F)F)c3)C(=O)C2(C)C)cc1F + Cc1nc(NC(=O)N2CCCC2C(N)=O)sc1-c1ccnc(C(C)(C)C(F)(F)F)c1 = label 0
Cn1ncc(Cl)c1-c1cc(C(=O)NC(CN)Cc2cccc(F)c2)sc1Cl (stereo unspecified) + CC(Nc1ccc2c(c1)OCCn1cc(N3C(=O)OCC3C(F)F)nc1-2)C(N)=O = label 1
C=CC(=O)N1CCN(c2nc(=O)n(-c3c(C)ccnc3C(C)C)c3nc(-c4c(O)cccc4F)c(F)cc23)C(C)C1 (stereo unspecified) + CC(Nc1ccc2c(c1)OCCn1cc(N3C(=O)OCC3C(F)F)nc1-2)C(N)=O = label 0
CC(Cn1ccc(-c2ccc(C#N)c(Cl)c2)n1)NC(=O)c1cc(C(C)O)[nH]n1 (stereo unspecified) + CC(Nc1ccc2c(c1)OCCn1cc(N3C(=O)OCC3C(F)F)nc1-2)C(N)=O = label 1

Query: Does CC1(C)CCC(CN2CCN(c3ccc(C(=O)NS(=O)(=O)c4ccc(NCC5CCOCC5)c([N+](=O)[O-])c4)c(Oc4cnc5[nH]ccc5c4)c3)CC2)=C(c2ccc(Cl)cc2)C1 + Cc1nc(NC(=O)N2CCCC2C(N)=O)sc1-c1ccnc(C(C)(C)C(F)(F)F)c1 have viability, T/C strictly under 90%?
Response: label 0

Query: Does CC(C)NCC(C(=O)N1CCN(c2ncnc3c2C(C)CC3O)CC1)c1ccc(Cl)cc1 (stereo unspecified) + COc1c(OCCCN2CCOCC2)ccc2c3n(c(=NC(=O)c4cnc(N)nc4)nc12)CCN3 have viability, T/C strictly under 90%?
Response: label 1

Query: Does CNC(=O)c1ccc(N2C(=S)N(c3ccc(C#N)c(C(F)(F)F)c3)C(=O)C2(C)C)cc1F + COc1c(OCCCN2CCOCC2)ccc2c3n(c(=NC(=O)c4cnc(N)nc4)nc12)CCN3 have viability, T/C strictly under 90%?
Response: label 1

Query: Does CC1(C)CCC(Nc2ncc(C(F)(F)F)c(-c3c[nH]c4c(P(C)(C)=O)c(C#N)ccc34)n2)CN1 (stereo unspecified) + Cc1nc(NC(=O)N2CCCC2C(N)=O)sc1-c1ccnc(C(C)(C)C(F)(F)F)c1 have viability, T/C strictly under 90%?
Response: label 1

Query: Does CCN1CCN(Cc2ccc(Nc3ncc(F)c(-c4cc(F)c5nc(C)n(C(C)C)c5c4)n3)nc2)CC1 + Cc1nc(NC(=O)N2CCCC2C(N)=O)sc1-c1ccnc(C(C)(C)C(F)(F)F)c1 have viability, T/C strictly under 90%?
Response: label 1

---

System: 817829-284-R-J1-PDC multi-cell spheroid viability
Assay: Anticancer human tumor 817829-284-R-J1-PDC cell line growth inhibition [PI3K];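 also: spheroids exposed to agents for seven days before readout; percent of vehicle DMSO control viability which is 100%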
Details: second compound 0.1 µM; first compound 0.01 µM; stronger effect = lower value
Reported metric: viability, T/C (%)
Hi! Could you send only the number? It should be in %, unit omitted.

The cases that follow already have their viability, T/C on record.
CC(=O)c1c(C)c2cnc(Nc3ccc(N4CCNCC4)cn3)nc2n(C2CCCC2)c1=O + CC(Nc1ncnc2nc[nH]c12)c1cc2cccc(Cl)c2c(=O)n1-c1ccccc1 = 90.2
Cn1ncnc1[C@H]1c2n[nH]c(=O)c3cc(F)cc(c23)N[C@@H]1c1ccc(F)cc1 + CC(Nc1ccc2c(c1)OCCn1cc(N3C(=O)OCC3C(F)F)nc1-2)C(N)=O = 70.9
CC(=O)c1c(C)c2cnc(Nc3ccc(N4CCNCC4)cn3)nc2n(C2CCCC2)c1=O + Cc1nc(NC(=O)N2CCCC2C(N)=O)sc1-c1ccnc(C(C)(C)C(F)(F)F)c1 = 45

viability, T/C on 817829-284-R-J1-PDC multi-cell spheroid viability for CC(C)n1nc(-c2ccc3oc(N)nc3c2)c2c(N)ncnc21 + COc1c(OCCCN2CCOCC2)ccc2c3n(c(=NC(=O)c4cnc(N)nc4)nc12)CCN3 is 31.1

viability, T/C on 817829-284-R-J1-PDC multi-cell spheroid viability for CC(C)n1nc(-c2ccc3oc(N)nc3c2)c2c(N)ncnc21 + CC(Nc1ncnc2nc[nH]c12)c1cc2cccc(Cl)c2c(=O)n1-c1ccccc1 is 80

viability, T/C on 817829-284-R-J1-PDC multi-cell spheroid viability for Cn1ncnc1[C@H]1c2n[nH]c(=O)c3cc(F)cc(c23)N[C@@H]1c1ccc(F)cc1 + Cc1nc(NC(=O)N2CCCC2C(N)=O)sc1-c1ccnc(C(C)(C)C(F)(F)F)c1 is 59.6

---

Test system: 817829-284-R-J1-PDC multi-cell spheroid viability
Assay: Anticancer human tumor 817829-284-R-J1-PDC cell line growth inhibition [PI3K]; active = viability on the fitted dose curve at most 10% of control; inactive = the rest;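 also: spheroids exposed to agents for seven days before readout; percent of vehicle DMSO control viability which is 100%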
Details: second compound 1 µM; first compound 3.16 µM
Your reply should match one of these outcome classes. active, inactive

Previously resolved entries follow.
CNC(=O)c1ccc(N2C(=S)N(c3ccc(C#N)c(C(F)(F)F)c3)C(=O)C2(C)C)cc1F + CC(Nc1ccc2c(c1)OCCn1cc(N3C(=O)OCC3C(F)F)nc1-2)C(N)=O = inactive
CC1(C)CCC(Nc2ncc(C(F)(F)F)c(-c3c[nH]c4c(P(C)(C)=O)c(C#N)ccc34)n2)CN1 (stereo unspecified) + CC(Nc1ccc2c(c1)OCCn1cc(N3C(=O)OCC3C(F)F)nc1-2)C(N)=O = inactive
CC1(C)CCC(Nc2ncc(C(F)(F)F)c(-c3c[nH]c4c(P(C)(C)=O)c(C#N)ccc34)n2)CN1 (stereo unspecified) + Cc1nc(NC(=O)N2CCCC2C(N)=O)sc1-c1ccnc(C(C)(C)C(F)(F)F)c1 = inactive
C#Cc1c(F)ccc2cc(O)cc(-c3ncc4c(N5CC6CCC(C5)N6)nc(OCC56CCCN5CC(F)C6)nc4c3F)c12 (stereo unspecified) + CC(Nc1ccc2c(c1)OCCn1cc(N3C(=O)OCC3C(F)F)nc1-2)C(N)=O = inactive

Query: What call does the record list for Cn1ncc(Cl)c1-c1cc(C(=O)NC(CN)Cc2cccc(F)c2)sc1Cl (stereo unspecified) + CC(Nc1ccc2c(c1)OCCn1cc(N3C(=O)OCC3C(F)F)nc1-2)C(N)=O ?
Response: inactive

Query: What call does the record list for Cn1nccc1Nc1nccc(-c2ccn(C(CO)c3ccc(Cl)c(F)c3)c(=O)c2)n1 (stereo unspecified) + CC(Nc1ccc2c(c1)OCCn1cc(N3C(=O)OCC3C(F)F)nc1-2)C(N)=O ?
Response: inactive

Query: What call does the record list for CC(Cn1ccc(-c2ccc(C#N)c(Cl)c2)n1)NC(=O)c1cc(C(C)O)[nH]n1 (stereo unspecified) + CC(Nc1ncnc2nc[nH]c12)c1cc2cccc(Cl)c2c(=O)n1-c1ccccc1 ?
Response: inactive

Query: What call does the record list for C#Cc1c(F)ccc2cc(O)cc(-c3ncc4c(N5CC6CCC(C5)N6)nc(OCC56CCCN5CC(F)C6)nc4c3F)c12 (stereo unspecified) + COc1c(OCCCN2CCOCC2)ccc2c3n(c(=NC(=O)c4cnc(N)nc4)nc12)CCN3 ?
Response: active

Query: What call does the record list for CC(Cn1ccc(-c2ccc(C#N)c(Cl)c2)n1)NC(=O)c1cc(C(C)O)[nH]n1 (stereo unspecified) + COc1c(OCCCN2CCOCC2)ccc2c3n(c(=NC(=O)c4cnc(N)nc4)nc12)CCN3 ?
Response: active

Query: What call does the record list for CC(C)NCC(C(=O)N1CCN(c2ncnc3c2C(C)CC3O)CC1)c1ccc(Cl)cc1 (stereo unspecified) + Cc1nc(NC(=O)N2CCCC2C(N)=O)sc1-c1ccnc(C(C)(C)C(F)(F)F)c1 ?
Response: inactive

Query: What call does the record list for CC1(C)CCC(CN2CCN(c3ccc(C(=O)NS(=O)(=O)c4ccc(NCC5CCOCC5)c([N+](=O)[O-])c4)c(Oc4cnc5[nH]ccc5c4)c3)CC2)=C(c2ccc(Cl)cc2)C1 + COc1c(OCCCN2CCOCC2)ccc2c3n(c(=NC(=O)c4cnc(N)nc4)nc12)CCN3 ?
Response: inactive

---

Tested on: 817829-284-R-J1-PDC multi-cell spheroid viability
Experiment: Anticancer human tumor 817829-284-R-J1-PDC cell line growth inhibition [PI3K];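 also: spheroids exposed to agents for seven days before readout; percent of vehicle DMSO control viability which is 100%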
Settings: second compound 0.316 µM; first compound 0.0316 µM; stronger effect = lower value
Reported metric: viability, T/C (%)
Hi! Could you send only the number? It should be in %, unit omitted.

CNC(=O)c1ccc(N2C(=S)N(c3ccc(C#N)c(C(F)(F)F)c3)C(=O)C2(C)C)cc1F + CC(Nc1ccc2c(c1)OCCn1cc(N3C(=O)OCC3C(F)F)nc1-2)C(N)=O = 46.8
CC1(C)CCC(CN2CCN(c3ccc(C(=O)NS(=O)(=O)c4ccc(NCC5CCOCC5)c([N+](=O)[O-])c4)c(Oc4cnc5[nH]ccc5c4)c3)CC2)=C(c2ccc(Cl)cc2)C1 + Cc1nc(NC(=O)N2CCCC2C(N)=O)sc1-c1ccnc(C(C)(C)C(F)(F)F)c1 = 67.2

The record that follows has no viability, T/C shown yet.
Recorded viability, T/C (compound CC(Cn1ccc(-c2ccc(C#N)c(Cl)c2)n1)NC(=O)c1cc(C(C)O)[nH]n1 (stereo not drawn) + CC(Nc1ncnc2nc[nH]c12)c1cc2cccc(Cl)c2c(=O)n1-c1ccccc1 ): 109
